tgt: PKB (Homo sapiens, UniProt P31749)
Construct: His; HA; made in house
Sequence (P31749 whole entry, species assumed): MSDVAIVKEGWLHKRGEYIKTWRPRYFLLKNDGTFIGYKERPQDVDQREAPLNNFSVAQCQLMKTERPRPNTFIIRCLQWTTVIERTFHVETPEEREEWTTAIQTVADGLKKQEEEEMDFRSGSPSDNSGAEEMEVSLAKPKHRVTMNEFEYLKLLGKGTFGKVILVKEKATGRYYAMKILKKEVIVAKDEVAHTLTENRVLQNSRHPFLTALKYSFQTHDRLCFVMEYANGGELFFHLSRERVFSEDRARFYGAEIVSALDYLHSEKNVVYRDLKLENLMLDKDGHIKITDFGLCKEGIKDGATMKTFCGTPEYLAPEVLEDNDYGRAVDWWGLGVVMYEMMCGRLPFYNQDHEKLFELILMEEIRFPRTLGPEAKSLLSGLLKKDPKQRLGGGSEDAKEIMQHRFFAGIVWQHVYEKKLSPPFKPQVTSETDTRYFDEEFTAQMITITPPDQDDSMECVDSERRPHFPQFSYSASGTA
procedure-text: PKB in vitro kinase activity assay (soluble His-HA-PKB / SPA bead screening)
Type: biochemical
test-context: 1 μM compound concentration, Assay 2
Where no end group is shown, it is not given here. Side-chain parts run from the residue outwards. [ ]: non-standard residue; d: D form. The star is where a group is joined. X1 = 5‑aminoethylsulfonamide isoquinoline, O=S(=O)(NCCN*)c1cccc2cnccc12; hLeu = CC(C)CC[C@H](N)C(=O)O; Nle = CCCC[C@H](N)C(=O)O; Orn = NCCC[C@H](N)C(=O)O; Dab = NCC[C@H](N)C(=O)O; Nva = CCC[C@H](N)C(=O)O; Abu = CC[C@H](N)C(=O)O; Dap = NC[C@H](N)C(=O)O; βAla = NCCC(=O)O
metric: PKB-kinase (spa) Assay 2, % inhibition of kinase activity (%)

Guide cases for PKB-kinase (spa) Assay 2, % inhibition of kinase activity, answers given:
# substance, tgt, recorded-value
measured = [
    ("60020-69: Arg-Pro-Arg-Dap-Glu(bAla-5-aminoethylsulfonamide isoquinoline)-Ala-Phe (RPR[Dap]E([βAla-X1])AF)", "PKB (Homo sapiens, UniProt P31749)", 57),
    ("60020-1: Arg-Pro-Arg-Dap-Glu(5-aminoethylsulfonamide isoquinoline)-Dab-Phe (RPR[Dap]E(X1)[Dab]F)", "PKB (Homo sapiens, UniProt P31749)", 65),
    ("60020-39: Arg-Pro-Arg-Dap-Glu(Gly-5-aminoethylsulfonamide isoquinoline)-Nva-Phe (RPR[Dap]E([Gly-X1])[Nva]F)", "PKB (Homo sapiens, UniProt P31749)", 16),
    ("60020-62: Arg-Pro-Arg-Nle-Glu(Gly-5-aminoethylsulfonamide isoquinoline)-Ala-Hol (RPR[Nle]E([Gly-X1])A[hLeu])", "PKB (Homo sapiens, UniProt P31749)", 38),
]

[P] 60020-15: Arg-Pro-Arg-Orn-Glu(5-aminoethylsulfonamide isoquinoline)-Nva-Phe (RPR[Orn]E(X1)[Nva]F)
[Q] 60020-90: Arg-Pro-Arg-Nle-Glu(bAla-5-aminoethylsulfonamide isoquinoline)-Dab-Hol (RPR[Nle]E([βAla-X1])[Dab][hLeu])
[R] 60020-70: Arg-Pro-Arg-Dap-Glu(bAla-5-aminoethylsulfonamide isoquinoline)-Ala-Hol (RPR[Dap]E([βAla-X1])A[hLeu])
[S] 60020-22: Arg-Pro-Arg-Abu-Glu(5-aminoethylsulfonamide isoquinoline)-Ala-Hol (RPR[Abu]E(X1)A[hLeu])
Please put the entries in order of rising PKB-kinase (spa) Assay 2, % inhibition of kinase activity. Please list each label once, in the requested order.
S, Q, P, R

[a] 60020-40: Arg-Pro-Arg-Dap-Glu(Gly-5-aminoethylsulfonamide isoquinoline)-Nva-Hol (RPR[Dap]E([Gly-X1])[Nva][hLeu])
[b] 60020-52: Arg-Pro-Arg-Abu-Glu(Gly-5-aminoethylsulfonamide isoquinoline)-Orn-Hol (RPR[Abu]E([Gly-X1])[Orn][hLeu])
[c] 60020-16: Arg-Pro-Arg-Orn-Glu(5-aminoethylsulfonamide isoquinoline)-Nva-Hol (RPR[Orn]E(X1)[Nva][hLeu])
Falling order of PKB-kinase (spa) Assay 2, % inhibition of kinase activity, please. Please list each label once, in the requested order.
b, c, a
